B1: Zinc finger homeobox protein 4, residues 2086 to 2141; numbered along this chain, Q86UP3 (parent)
chain: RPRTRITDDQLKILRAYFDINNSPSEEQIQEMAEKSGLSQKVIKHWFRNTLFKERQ

# Variants of: B1
# TEST_METHOD_NOTES: abundance fitness (aPCA) (normalised: wild type 0, dead -1); higher = more abundant; growth selection in yeast, the domain comes from the species named
# RUN_PARAMETERS: Homo sapiens
# abundance fitness per entry

MUTANT_LABEL: A33Y
abundance fitness: -0.531
--
MUTANT_LABEL: Q28G
abundance fitness: -0.178
--
MUTANT_LABEL: K44H
abundance fitness: -0.042
--
MUTANT_LABEL: N49I
abundance fitness: 0.019
--
MUTANT_LABEL: E26F
abundance fitness: 0.111
--
MUTANT_LABEL: K35S
abundance fitness: -0.192
--
MUTANT_LABEL: E31L
abundance fitness: -0.089
--
MUTANT_LABEL: E54I
abundance fitness: -0.403
